- tested_target: Mitogen-activated protein kinase 10 (Mus musculus)
- assay_details: JNK3 AlphaScreen Assay (AID 530);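 also: kinase came from lysate of stimulated human HepG2 cells; signal reports phosphorylation of biotinylated GST-cJun 1-79 at Ser73 with 10 µM ATP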
- run_parameters: JNK3 lysate, c-Jun phosphorylation; series mostly up to 57.1 µM
Inconclusive results are not listed. Calls of active or inactive are those of the source. Calls follow the shape of the dose curve; as a rule, active = well fitted curve in either direction with a large enough effect (not every such curve was filed as active); inconclusive = small, poorly fitted or top-dose-only effect, or another doubt; inactive = flat fitted curve, though single readings scatter.
observed_property: activity change, negative = inhibition

// worked examples, activity change, negative = inhibition included
CN1CCN(c2ncc3ncc(=O)n(C[C@H]4CCCO4)c3n2)CC1 = inactive
CCCCNc1nc(C)nc2c1nc(-c1ccccc1)n2CC1CCCN1CC (stereo unspecified) = inactive
CC(C)(c1cc(Br)c(O)c(Br)c1)c1cc(Br)c(O)c(Br)c1 = inactive
COc1ccc(Oc2ncc3ncc(=O)n(C)c3n2)cc1 = inactive
Cc1noc(C)c1-c1nccc(-n2ccnc2)n1 = inactive

Proceed to the following item.
Lookup: What does the data say about its activity change, negative = inhibition? Entry: COc1ccc(-n2c(=O)c(-c3cccs3)nc3cnc(N4CCOCC4)nc32)cc1
Found: inactive
